measurementTarget: CDK2 (Homo sapiens)
Construct: endogenous in cells; host or cells: OVCAR3 cells
assayExplanation: Phospho-RB measurement in OVCAR3 cells (HTRF phospho-RB cellular kit)
Format: cell-based
testContext: inhibition of RB phosphorylation at S807/811 (HTRF, TR-FRET ratio 665/620), 24 h compound treatment, 0.3 to 10,000 nM
pIC50: −log10 of the molar value.
measuredParameter: pIC50

1) CN(C)Cc1ccc2c(c1)CN(S(=O)(=O)Nc1cccc(-c3nc(C(C)(C)C)sc3-c3ccnc(NC4CCN(S(C)(=O)=O)CC4)n3)c1F)C2 [Example 171] :: 5.67

I = CC(C)(C)c1nc(-c2cccc(NS(=O)(=O)N3CCC4(CCCC4)C3)c2F)c(-c2ccnc(NC3CCN(S(=O)(=O)N4CCNCC4)CC3)n2)s1 [Example 176]
II = O=S1(=O)C[C@@H]2[C@H](C1)[C@H]2Nc1nccc(-c2sc(C34CC(C3)C4)nc2-c2cccc(NS(=O)(=O)N3Cc4ccc(CO)cc4C3)c2F)n1 [Example 11]
III = CN1CCN(S(=O)(=O)N2CCC(Nc3nccc(-c4sc(C(C)(C)C)nc4-c4cccc(NS(=O)(=O)N5CCc6c(C#N)cccc65)c4F)n3)CC2)CC1 [Example 125]
Arrange items by their pIC50 values in increasing order. Arrange the labels as the request states and list them.
I, III, II

###

measurementTarget: CDK2 (Homo sapiens, UniProt P24941)
Construct: endogenous in cells; host or cells: OVCAR3 cells
assayExplanation: Phospho-RB measurement in OVCAR3 cells (HTRF phospho-RB cellular kit)
Format: cell-based
testContext: inhibition of RB phosphorylation at S807/811 (HTRF, TR-FRET ratio 665/620), 24 h compound treatment, 0.3 to 10,000 nM
measuredParameter: IC50 (nM)

1. CS(=O)(=O)[C@H]1CC[C@H](Nc2nccc(-c3sc(N4C5CCC4CN(CC(F)(F)F)C5)nc3-c3cccc(NS(=O)(=O)N4CCc5ccc(C(F)(F)F)cc54)c3F)n2)CC1 :: 1190

I = CC(C)(C)c1nc(-c2cccc(NS(=O)(=O)N3Cc4ccncc4C3)c2F)c(-c2ccnc(N[C@H]3[C@@H]4CS(=O)(=O)C[C@@H]43)n2)s1
II = CN1CC2CCC(C1)N2c1nc(-c2cccc(NS(=O)(=O)N3CCc4ccccc43)c2F)c(-c2ccnc(NC3CC4(C3)CS(=O)(=O)C4)n2)s1
III = CN(C1CC1)S(=O)(=O)Nc1cccc(-c2nc(C(C)(C)C)sc2-c2ccnc(NC3CCN(S(=O)(=O)N4CCNCC4)CC3)n2)c1F
IV = O=S1(=O)CC2(CC(Nc3nccc(-c4sc(C56CC(C(F)(F)F)(C5)C6)nc4-c4cccc(NS(=O)(=O)N5CCc6ccc(C(F)(F)F)cc65)c4F)n3)C2)C1
// smallest IC50 at index 0, largest at the end Please, when replying, give the labels in the order that was requested.
II, I, IV, III

###

measurementTarget: CDK2 (Homo sapiens, UniProt P24941)
Construct: endogenous in cells; host or cells: OVCAR3 cells
assayExplanation: Phospho-RB measurement in OVCAR3 cells (HTRF phospho-RB cellular kit)
Format: cell-based
testContext: inhibition of RB phosphorylation at S807/811 (HTRF, TR-FRET ratio 665/620), 24 h compound treatment, 0.3 to 10,000 nM
pIC50: −log10 of the molar value.
measuredParameter: pIC50

1) C#Cc1ccc2c(c1)N(S(=O)(=O)Nc1cccc(-c3nc(C45CC(C4)C5)sc3-c3ccnc(NC4CC5(C4)CS(=O)(=O)C5)n3)c1F)CC2 :: 6.80

I = CC(C)(C)c1nc(-c2cccc(NS(=O)(=O)N3CCc4ccc(-c5ccccc5)cc43)c2F)c(-c2ccnc(NC3CCN(S(C)(=O)=O)CC3)n2)s1
II = CNCc1cccc2c1CCN2S(=O)(=O)Nc1cccc(-c2nc(C(C)(C)C)sc2-c2ccnc(NC3CCN(S(C)(=O)=O)CC3)n2)c1F
III = CS(=O)(=O)[C@H]1CC[C@H](Nc2nccc(-c3sc(N4C5CCC4CC(F)(F)C5)nc3-c3cccc(NS(=O)(=O)N4CCc5ccc(C(F)(F)F)cc54)c3F)n2)CC1
IV = CN1CC2CCC(C1)N2c1nc(-c2cccc(NS(=O)(=O)N3Cc4cccc(OC(F)F)c4C3)c2F)c(-c2ccnc(NC3CC4(C3)CS(=O)(=O)C4)n2)s1
V = CNCc1cccc2c1CN(S(=O)(=O)Nc1cccc(-c3nc(C(C)(C)C)sc3-c3ccnc(NC4CCN(S(C)(=O)=O)CC4)n3)c1F)C2
Arrange these 5 molecules in increasing order of pIC50. Please write the labels in the order that was asked for.
V, I, II, III, IV

###

measurementTarget: CDK2 (Homo sapiens)
Construct: endogenous in cells; host or cells: OVCAR3 cells
assayExplanation: Phospho-RB measurement in OVCAR3 cells (HTRF phospho-RB cellular kit)
Assay type: cell-based
testContext: inhibition of RB phosphorylation at S807/811 (HTRF, TR-FRET ratio 665/620), 24 h compound treatment, 0.3 to 10,000 nM
pIC50: −log10 of the molar value.
measuredParameter: pIC50

Known results for compounds:
1) CC(C)(C)c1nc(-c2cccc(NS(=O)(=O)N3CCc4ccccc4C3)c2F)c(-c2ccnc(NC3CCN(S(=O)(=O)N4CCNCC4)CC3)n2)s1 :: 6.56
2) CN(C)Cc1ccc2c(c1)CCN2S(=O)(=O)Nc1cccc(-c2nc(C(C)(C)C)sc2-c2ccnc(NC3CCN(S(C)(=O)=O)CC3)n2)c1F :: 5.81
3) CC(C)(C)c1nc(-c2cccc(NS(=O)(=O)N3CCc4ccccc43)c2F)c(-c2ccnc(NC3CC4(C3)CS(=O)(=O)C4)n2)s1 :: 7.05
4) CN1CC2CCC(C1)N2c1nc(-c2cccc(NS(=O)(=O)N3CCc4ccc(Cl)cc43)c2F)c(-c2ccnc(NC3CC4(C3)CS(=O)(=O)C4)n2)s1 :: 7.57

A = CC(C)(C)c1nc(-c2cccc(NS(=O)(=O)N3Cc4cccc(C#N)c4C3)c2F)c(-c2ccnc(NC3CCN(S(C)(=O)=O)CC3)n2)s1
B = Cn1cc2c(n1)CN(S(=O)(=O)Nc1cccc(-c3nc(C(C)(C)C)sc3-c3ccnc(Nc4ccc(N5CCNCC5)cc4)n3)c1F)C2
Decide: A or B , by lowest recorded pIC50. Answer by quoting the chosen item's label.
B

###

measurementTarget: CDK2 (Homo sapiens, UniProt P24941)
Construct: endogenous in cells; host or cells: OVCAR3 cells
assayExplanation: Phospho-RB measurement in OVCAR3 cells (HTRF phospho-RB cellular kit)
Format: cell-based
testContext: inhibition of RB phosphorylation at S807/811 (HTRF, TR-FRET ratio 665/620), 24 h compound treatment, 0.3 to 10,000 nM
pIC50: −log10 of the molar value.
measuredParameter: pIC50

Below are worked cases with known answers.
1. CN1CCN(S(=O)(=O)N2CCC(Nc3nccc(-c4sc(C(C)(C)C)nc4-c4cccc(NS(=O)(=O)N(C)C5CCC5)c4F)n3)CC2)CC1 :: 6.04
2. CC(C)(c1nc(-c2cccc(NS(=O)(=O)N3CCc4ccc(Cl)cc43)c2F)c(-c2ccnc(N[C@H]3CC[C@H](S(C)(=O)=O)CC3)n2)s1)C(F)(F)F :: 6.96
3. O=S1(=O)CC2(CC(Nc3nccc(-c4sc(N5C6CCC5CN(C5CC(F)(F)C5)C6)nc4-c4cccc(NS(=O)(=O)N5CCc6ccc(C(F)(F)F)cc65)c4F)n3)C2)C1 :: 6.43
4. CN(c1ccccc1)S(=O)(=O)Nc1cccc(-c2nc(C(C)(C)C)sc2-c2ccnc(NC3CCN(S(C)(=O)=O)CC3)n2)c1F :: 5.91
5. CN(C)C(=O)c1ccc2c(c1)N(S(=O)(=O)Nc1cccc(-c3nc(C(C)(C)C)sc3-c3ccnc(NC4CCN(S(C)(=O)=O)CC4)n3)c1F)CC2 :: 6.40
6. CC(C)(C)c1nc(-c2cccc(NS(=O)(=O)N3CCN(c4ccccc4)CC3)c2F)c(-c2ccnc(NC3CCN(S(C)(=O)=O)CC3)n2)s1 :: 6.13
7. O=S1(=O)CC2(CC(Nc3nccc(-c4sc(N5C6CCC5CN(CC(F)(F)F)C6)nc4-c4cccc(NS(=O)(=O)N5Cc6cccc(OC(F)F)c6C5)c4F)n3)C2)C1 :: 6.81
8. CS(=O)(=O)[C@H]1CC[C@H](Nc2nccc(-c3sc(C45CC(C(F)(F)F)(C4)C5)nc3-c3cccc(NS(=O)(=O)N4Cc5ccccc5C4)c3F)n2)CC1 :: 6.31

A = CN(C)Cc1cccc(Nc2nccc(-c3sc(C(C)(C)C)nc3-c3cccc(NS(=O)(=O)N4CCc5ccc(C#N)cc54)c3F)n2)c1
B = CC1CCCN(S(=O)(=O)Nc2cccc(-c3nc(C(C)(C)C)sc3-c3ccnc(NC4CCN(S(C)(=O)=O)CC4)n3)c2F)C1 (stereo not drawn)
C = CC(C)(C)c1nc(-c2cccc(NS(=O)(=O)N3CC4CC4C3)c2F)c(-c2ccnc(NC3CCN(S(=O)(=O)N4CCNCC4)CC3)n2)s1 (stereo not drawn)
Number of molecules to sort: 3. Sort criterion: pIC50, ascending. Provide the ranking by listing each label in its place in the requested order.
B, C, A
(B: 5.50, C: 5.98, A: 6.28)
